Test system: SK-MEL-5 melanoma
Assay: NCI tumour cell line growth inhibition, 48 h
compounds and their reported TGI
quantity name: TGI

> print(dat)
                                    compound  quantity.name   measured
 1  CC(=O)CC1(CBr)Nc2ccc([N+](=O)[O-])cc2NC1=O (stereo not given)            TGI   > 100 µM
 2                      N/N=C(/Cc1ccccc1)NNO            TGI   > 100 µM
 3  CC(=O)N1[C@H](C(=O)O)CS[C@H]1c1ccc(F)cc1            TGI   > 100 µM
 4  CN(C)CCC(=O)Nc1ccc(-n2cc(-c3cccc(NC(=S)Nc4cccc(-c5cn(-c6ccc(NC(=O)CCN(C)C)cc6)nn5)c4)c3)nn2)cc1            TGI   > 100 µM
 5  CCN1CC2(C)CCC(OC)C34C5CC6CCC(O)(C5C(=O)O6)C(C(O)C23)C14 (stereo not given)            TGI   > 100 µM
 6           COc1ccc(-c2ccc(OC)c(OC)c2OC)cc1            TGI  > 45.2 µM
 7  COC(=O)C1C=CCC2CCCCC21N1CCCC1 (stereo not given)            TGI   > 100 µM
 8  COC(=O)[C@]1(c2cc3ccccc3n2S(=O)(=O)c2ccccc2)CC2CN(C(=O)OCc3ccccc3)C1C1OC(C)(C)OC21 (stereo not given in full)            TGI   > 100 µM
 9            CCOc1c(Br)cc(Br)cc1C=C(C#N)C#N            TGI    > 10 µM
10         COc1ccc(CCNC(=O)Cc2ccccc2CO)cc1OC            TGI   > 100 µM

###

Tested on: UACC-62 melanoma
Assay: NCI tumour cell line growth inhibition, 48 h
compounds and their reported TGI
quantity name: TGI

> print(dat)
                                   compound  measured
1           COc1ccc(-c2ccc(OC)c(OC)c2OC)cc1  > 100 µM
2  COc1cc2c(cc1OC)C(=O)N(c1ccc(OCCN3CCCC3)cc1)C2  > 100 µM
3  COC(=O)C1C=CCC2CCCCC21N1CCCC1 (stereo not drawn)  > 100 µM

###

System: M14 melanoma
Assay: NCI tumour cell line growth inhibition, 48 h
compounds and their reported TGI
quantity name: TGI

> print(dat)
                                   compound  measured
1  O=C1NC(O)c2cc3ccccc3cc2O1 (stereo not drawn)  > 100 µM
2  O=C(O)C(Cc1ccccc1)NCc1c(O)ccc2c(-c3ccccc3)cc(=O)oc12 (stereo not drawn)  > 100 µM
3  Clc1ccc2c(NCCCCCCNc3ccnc4cc(Cl)ccc34)ccnc2c1   3.51 µM
4  COP(=O)(OC)OCN(C)CC/C=C(\C)CC/C=C(\C)CCC=C(C)C     28 µM
5     Cc1cccc(C)c1NC(=O)C(=O)Cc1nc2ccccc2s1  > 100 µM
6  Cc1ccc(/C(=N/Nc2ccc([N+](=O)[O-])cc2)Sc2cc(Cl)c(C)cc2S(N)(=O)=O)cc1   3.85 µM
7  Cc1ccccc1NC(=O)CSc1nnc(-c2ccc(N=Cc3ccc(Cl)cc3)cc2)o1  > 100 µM
8  COc1cc2c(cc1C)NC(=O)/C2=C/c1ccnc2ccccc12   > 50 µM

###

Test system: NCI-H460 lung
Outcomes: True for active, False for inactive

> print(dat)
                                   molecule  category.label
1  O=S(=O)(NC1=NCCN1C(=S)SN1CCn2c1nsc2=S)c1ccc(Cl)cc1           False
2  COc1cc(/C=N/NC(=O)c2cnn3c2NC(c2ccccc2)C3)ccc1OC1CCCC1 (configuration not stated)            True
3  O=c1c(Cc2ccc3c(c2)OCO3)nnc2sc(-c3cc(F)c(Cl)cc3Cl)nn12           False
4  CN1CCN(C2=NC(=O)/C(=C\c3ccc(N(C)C)cc3)S2)CC1           False
5  COc1ccc2[nH]c(C(=O)N3CCN(C(=O)OCc4ccc5c(Cl)cc(Cl)c(O)c5n4)CC3)cc2c1           False
6  Cc1ccc(/C(=N/Nc2ccc([N+](=O)[O-])cc2)Sc2cc(Cl)c(C)cc2S(N)(=O)=O)cc1           False
7  CCCCNC(c1ccc(Cl)cc1)C(O)c1ccc(Cl)cc1 (configuration not stated)           False

###

Test system: SN12C renal
Assay: NCI tumour cell line growth inhibition, 48 h
quantity name: TGI

> print(dat)
                      structure.smiles  test.target  measured
1         COc1ccc(-c2nc3ccccc3s2)cc1OC  SN12C renal  > 100 µM
2  CCOC(=O)Nc1ccc2nc(-c3cscn3)[nH]c2c1  SN12C renal  > 100 µM
3     c1cnc2c(c1)-n1cccc1C1(CCCCC1)NN2  SN12C renal  > 100 µM

###

Test system: RPMI-8226 leukemia
Assay: NCI tumour cell line growth inhibition, 48 h
quantity name: TGI

> print(dat)
                                   molecule   measured
1  CN1CCCC2[C@@H]3CCC4c5nonc5CC[C@]4(C)C3CC[C@@]21C (stereo not given in full)   > 100 µM
2  CC(C)CCCC(C)[C@H]1CCC(C2C[C@@H](O)[C@@H]3CC(O)[C@@H](O)C[C@]3(CO)C2=O)[C@]1(C)CCO (stereo not given in full)   > 100 µM
3  COc1cc2c(cc1C)NC(=O)/C2=C/c1ccnc2ccccc12    > 50 µM
4  C=C1c2nc3ccccc3n2C=C(c2ccc(C)cc2)N1c1ccc(OC)cc1  > 58.5 µM
5  CC1=NN(C(=O)CC(=O)Nc2cccc(C)c2)C(=O)C1N=Nc1ccc(S(=O)(=O)CCOS(=O)(=O)O)cc1 (stereo not given)   > 100 µM

###

Test system: NCI/ADR-RES ovarian
Experiment: NCI tumour cell line growth inhibition, 48 h; in the data active means GI50 below about 0.43 µM; inactive means the rest
Outcomes: y (active), n (inactive)

> print(dat)
                           structure.smiles  category.label
1  CCC[CH2][Sn-]([CH2]CCC)([CH2]CCC)[O]C(=O)C(C)C               y
2  CCCCCCCC/C=C/CCCCCCCC1=NC(C)(C)CN1C(C)(C)CO               n
3  COc1cc2c(cc1C)NC(=O)/C2=C/c1ccnc2ccccc12               n
4  CSc1nc(Nc2cccc(NC(=O)CCl)c2)c(C#N)c(-c2cccc([N+](=O)[O-])c2)n1               n
5          NC(N)=N/N=C\c1ccc(OCc2ccccc2)cc1               n

###

Tested on: SNB-75 CNS
Experiment: NCI tumour cell line growth inhibition, 48 h
quantity name: TGI

> print(dat)
                                   molecule  quantity.name  measured
1  CC1CCC2C(C)C(=O)OC2C2(C)C(=O)C=CC12 (stereo not given)            TGI   > 10 µM
2    CCOP(=O)(/C=C/n1cc(C)c(=O)[nH]c1=O)OCC            TGI  > 100 µM
3  Cc1cc(Cl)ccc1NC(=O)CCCC(=O)C1C/C(=N/O)CC/C1=N\O (stereo not given)            TGI  > 100 µM
4                        O=CCCCCCOCc1ccccc1            TGI  > 100 µM
5  CCOc1ccc(NC(=O)/C(CC(=O)c2c[n+](=O)c3ccccc3n2[O-])=N\OCCCc2ccccc2)cc1            TGI  > 100 µM

###

System: SF-268 CNS
Assay: NCI tumour cell line growth inhibition, 48 h

molecule	TGI
COc1c2ccoc2nc2c(OC)c(OCC(O)C(C)(C)O)ccc12 (stereo not given)	> 100 µM
COC(=N)C1(C#N)NC(c2ccsc2)C(C#N)(C#N)NC1c1ccsc1 (stereo not given)	> 100 µM
N#Cc1c(NC(=S)Nc2ccc(Cl)cc2)sc2c1CCN(N1CCc3c(sc(NC(=S)Nc4ccc(Cl)cc4)c3C#N)C1)C2	> 100 µM
O=C1C(=O)c2c(nc3ccc(C(F)(F)F)cn23)-c2ccccc21	0.609 µM
CCOc1ccc(NC(=O)/C(CC(=O)c2c[n+](=O)c3ccccc3n2[O-])=N\OCCCc2ccccc2)cc1	> 100 µM
Clc1ccc2c(NCCCCCCNc3ccnc4cc(Cl)ccc34)ccnc2c1	24.8 µM
CC(=O)Nc1ccc(C2CC(c3ccc([N+](=O)[O-])cc3)=Nc3ccccc3S2)cc1 (stereo not given)	77.9 µM
CC(C)(C)C#COC(=O)c1ccccc1	> 100 µM
Cc1ccc(/C(=N/Nc2ccc([N+](=O)[O-])cc2)Sc2cc(Cl)c(C)cc2S(N)(=O)=O)cc1	7.37 µM
Cc1cn(CCCCCCOC(=O)NC(CCCNC(N)=O)C(=O)O)c(=O)[nH]c1=O (stereo not given)	> 100 µM
COC1(CC[C@@H](C)COC2OC(CO)C(O)C(O)C2O)OC2C[C@H]3[C@@H]4CC[C@H]5C[C@@H](OC6OC(CO)C(OC7OC(CO)C(O)C(O)C7O)C(O)C6OC6OC(C)C(O)C(O)C6O)[C@H](O)C[C@]5(C)[C@H]4CC[C@]3(C)C2[C@@H]1C (stereo not given in full)	3.99 µM
Cc1ccc(C2=CC(=O)c3ccccc3C2=O)n1-c1ccccc1	> 100 µM
C=CCC(O[Si](C)(C)C(C)(C)C)c1cc(O[Si](C)(C)C(C)(C)C)ccc1OC (stereo not given)	> 100 µM
COc1ccc(-c2ccc(CC(=O)O)cc2)cc1OC	> 100 µM
C/C(=C1\N=C(c2ccccc2)OC1=O)c1ccccc1	> 100 µM
